tested-target: Kras and SOS1 (biotin-tagged human Kras loaded with GDP, His-tagged human SOS1) (Homo sapiens, UniProt P01116, G12D)
Construct: made in house; host or cells: E. coli (stated for Kras only)
Sequence (P01116 1-188 isoform P01116-2 G12D): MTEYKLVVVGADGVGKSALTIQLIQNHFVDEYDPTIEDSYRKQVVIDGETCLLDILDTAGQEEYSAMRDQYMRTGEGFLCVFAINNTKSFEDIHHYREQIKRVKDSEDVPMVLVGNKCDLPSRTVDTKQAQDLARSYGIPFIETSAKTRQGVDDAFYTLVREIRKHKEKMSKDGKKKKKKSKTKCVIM
test-details: Protein-protein interaction inhibition between Kras and SOS1 (KrasGl2D-SOS PPI) using AlphaScreen
Type: binding
experimental-context: AlphaScreen; biotin-tagged human Kras loaded with GDP, His-tagged human SOS1; read-out: KRAS G12D-SOS PPI IC50
Starred links: 1 amine or outer side, 2 acyl side, 3 side chain; linkers in the order of their positions; H or OH if unused. Positions of bridges follow the written chain, without caps; N, C: chain ends. Non-standard residues stand in square brackets, D forms with d. Residues, ends and D or L forms follow the SMILES beside them. *: point of attachment. hPhe(3,5-F2-4-CF3) = N[C@@H](CCc1cc(F)c(C(F)(F)F)c(F)c1)C(=O)O; hPhe(3-Cl-4-CF3) = N[C@@H](CCc1ccc(C(F)(F)F)c(Cl)c1)C(=O)O; NMePhe(4-Me) = CN[C@@H](Cc1ccc(C)cc1)C(=O)O; NMedβ3hAla = C[C@H](CC(=O)[*:2])N(C)[*:1]; NMeGly(cPent) = CN[C@H](C(=O)O)C1CCCC1; Pro(4,4-F2) = O=C(O)[C@@H]1CC(F)(F)CN1; NMeAla(cPr) = CN[C@@H](CC1CC1)C(=O)O; NMeCha = CN[C@@H](CC1CCCCC1)C(=O)O; Nva(3-Et) = CCC(CC)[C@H](N)C(=O)O; NMeChg = CN[C@H](C(=O)O)C1CCCCC1; NMeI = CC[C@H](C)[C@H](NC)C(=O)O; NMeD = CN[C@@H](CC(=O)O)C(=O)O; NMeL = CN[C@@H](CC(C)C)C(=O)O; NMeNva = CCC[C@H](NC)C(=O)O; NMeV = CN[C@H](C(=O)O)C(C)C; NMeA = CN[C@@H](C)C(=O)O; Pyrrolidide = C1CCN(*)C1; Ac5c = NC1(C(=O)O)CCCC1; Aze = O=C(O)[C@@H]1CCN1; Sar = CNCC(=O)O
# maps each entry to its IC50
Give a bare numeral; the unit nM is implied.

| molecule | measure-unit | IC50 |
| --- | --- | --- |
| CC[C@H](C)[C@@H]1NC(=O)[C@H](CC(C)C)N(C)C(=O)C[C@@H](C)N(C)C(=O)[C@H](C2CCCC2)N(C)C(=O)C2(CCCC2)NC(=O)[C@@H]2CC(F)(F)CN2C(=O)[C@H](CCc2cc(F)c(C(F)(F)F)c(F)c2)NC(=O)CN(C)C(=O)[C@H](CC2CCCCC2)N(C)C(=O)[C@@H]2CCN2C(=O)[C@H](C)N(C)C1=O [Compound 628] (cyclo([Ac5c][NMeGly(cPent)][NMedβ3hAla][NMeL]I[NMeA][Aze][NMeCha][Sar][hPhe(3,5-F2-4-CF3)][Pro(4,4-F2)])) | nM | 20 |
| CCC(CC)[C@@H]1NC(=O)[C@H](CC(C)C)N(C)C(=O)C[C@@H](C(=O)N(C)C)N(C)C(=O)[C@H]([C@@H](C)CC)N(C)C(=O)CNC(=O)[C@@H]2CCCN2C(=O)[C@H](CCc2ccc(C(F)(F)F)c(Cl)c2)NC(=O)CN(C)C(=O)[C@H](Cc2ccc(C)cc2)N(C)C(=O)[C@@H]2CCN2C(=O)[C@H](C)N(C)C1=O [Compound 193] ([NMeL][Nva(3-Et)][NMeA][Aze][NMePhe(4-Me)][Sar][hPhe(3-Cl-4-CF3)]PG[NMeI][NMeD]-NMe2; lactam N-11) | nM | 420 |
| CCC[C@H]1C(=O)N[C@@H]([C@@H](C)CC)C(=O)N(C)CC(=O)N(C)CC(=O)N(C)[C@@H](CC2CCCCC2)C(=O)N(C)CC(=O)N[C@@H](CCc2ccc(C(F)(F)F)c(Cl)c2)C(=O)N2CC(F)(F)C[C@H]2C(=O)NC2(CCCC2)C(=O)N(C)[C@@H](C2CCCCC2)C(=O)N(C)[C@H](C(=O)N2CCCC2)CC(=O)N1C [Compound 1232] ([NMeNva]I[Sar][Sar][NMeCha][Sar][hPhe(3-Cl-4-CF3)][Pro(4,4-F2)][Ac5c][NMeChg][NMeD]-Pyrrolidide; lactam N-11) | nM | 0.47 |
| CC[C@H](C)[C@@H]1NC(=O)[C@H](CC(C)C)N(C)C(=O)C[C@@H](C)N(C)C(=O)[C@H](C(C)C)N(C)C(=O)C2(CCCC2)NC(=O)[C@@H]2CCCN2C(=O)[C@H](CCc2ccc(C(F)(F)F)c(Cl)c2)NC(=O)CN(C)C(=O)[C@H](CC2CC2)N(C)C(=O)CN(C)C(=O)CN(C)C1=O [Compound 930] (cyclo([Ac5c][NMeV][NMedβ3hAla][NMeL]I[Sar][Sar][NMeAla(cPr)][Sar][hPhe(3-Cl-4-CF3)]P)) | nM | 39 |

// CC[C@H](C)[C@@H]1NC(=O)[C@H](CC(C)C)N(C)C(=O)C[C@@H](C)N(C)C(=O)[C@H](C2CCCC2)N(C)C(=O)C2(CCCC2)NC(=O)[C@@H]2CCCN2C(=O)[C@H](CCc2ccc(C(F)(F)F)c(Cl)c2)NC(=O)CN(C)C(=O)[C@H](Cc2ccc(C)cc2)N(C)C(=O)CN(C)C(=O)CN(C)C1=O [Compound 1694] (cyclo([Ac5c][NMeGly(cPent)][NMedβ3hAla][NMeL]I[Sar][Sar][NMePhe(4-Me)][Sar][hPhe(3-Cl-4-CF3)]P)) : IC50 value = 0.55
